ENDPOINT LABEL: melting point

What does the record list as melting point for O=c1c(-c2ccc(Br)cc2)coc2cc(O)ccc12 [Analog 25, 7-Hydroxy-4′-Bromoisoflavone] ?
266 to 268 °C

Another molecule to check: CCOC(=O)c1oc2cc(O)ccc2c(=O)c1-c1ccccc1 [Analog 20, 2-Ethoxycarbonyl-7-Hydroxyisoflavone]
213 to 214 °C

Another molecule to check: COc1ccc2c(=O)c(-c3ccccc3)coc2c1OC
143 to 144 °C

Another molecule to check: CCc1ccc2c(=O)c(-c3ccccc3)coc2c1
103 to 104 °C

Another molecule to check: O=C(O)c1oc2cc(O)ccc2c(=O)c1-c1ccccc1 [Analog 21, 2-Carboxy-7-Hydroxyisoflavone]
257 to 258 °C

###

Molecular target: ALDH-2 (Mesocricetus auratus, UniProt P81178)
Construct: membrane and supernatant fractions of the lysate of a gradient purified hamster liver mitochondria preparation
Sequence (P81178 whole entry): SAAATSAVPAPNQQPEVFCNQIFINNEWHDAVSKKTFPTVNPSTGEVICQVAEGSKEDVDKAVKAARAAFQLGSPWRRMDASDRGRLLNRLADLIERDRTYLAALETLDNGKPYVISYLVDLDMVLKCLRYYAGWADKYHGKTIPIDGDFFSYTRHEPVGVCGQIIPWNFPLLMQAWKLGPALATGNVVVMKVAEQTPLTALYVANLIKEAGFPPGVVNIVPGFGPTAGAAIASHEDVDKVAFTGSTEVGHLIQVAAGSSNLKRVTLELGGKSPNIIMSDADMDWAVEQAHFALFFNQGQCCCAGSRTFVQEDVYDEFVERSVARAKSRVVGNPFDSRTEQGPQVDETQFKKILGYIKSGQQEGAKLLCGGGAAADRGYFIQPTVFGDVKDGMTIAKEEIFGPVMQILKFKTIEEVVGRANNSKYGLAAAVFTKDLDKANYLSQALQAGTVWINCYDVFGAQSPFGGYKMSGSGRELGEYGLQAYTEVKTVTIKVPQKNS
Assay: ALDH-2 activity assay (supernatant of hamster liver mitochondria lysate)
Conditions: read-out: ALDH-2 inhibition IC50
Description: Several of the synthesized compounds were tested for MAO and ALDH-2 suppression activity. The membrane and supernatant fractions of the lysate of a gradient purified hamster liver mitochondria preparation were used as sources of MAO and ALDH-2, respectively. ALDH-2 and MAO activity assays were performed according to established procedures (Rooke et al. (2000) J. Med. Chem. 43:4169).
Assignment: determine reported IC50 for the given molecules.

Give IC50 (ALDH-2 (Mesocricetus auratus, UniProt P81178)) of the following molecule: CC(=O)Oc1ccc2c(=O)c(-c3ccccc3)coc2c1
0.14 to 8 µM

Another molecule to check: O=c1c(-c2ccc(O)cc2)coc2cc(OCn3nnc4ccccc43)ccc12
0.14 to 8 µM

Another molecule to check: O=C1c2ccccc2C(=O)N1CCCCOc1ccc2c(=O)c(-c3ccccc3)coc2c1
0.14 to 8 µM
